Assay: Stability comparison under severe conditions (0.3% hydrogen peroxide, 80° C., content by HPLC)
Assay type: physicochemical
Conditions: 1 mg/mL in 0.3% hydrogen peroxide, chamber at 80° C., 24 hrs
Structures can show the parent of a compound that is named as a salt.
We label by threshold. Values of Drug content, 24 hrs strictly beneath 80% are t. Values of 80% and up are f.

Ask: I wonder whether Fc1ccc([C@@H]2CCNC[C@H]2COc2ccc3c(c2)OCO3)cc1.O=C(O)[C@H]1OC(O)[C@H](O)[C@@H](O)[C@@H]1O [Paroxetine glucuronate] has Drug content, 24 hrs below 80%. Can you tell?
Reply: f

Ask: Please answer likewise for Fc1ccc([C@@H]2CCNC[C@H]2COc2ccc3c(c2)OCO3)cc1.O=S(=O)(O)c1ccc2ccccc2c1 [Paroxetine napsylate]
Reply: t

Ask: Item: C[C@H](CCC(=O)NCC(=O)O)[C@H]1CC[C@H]2[C@@H]3[C@H](O)C[C@@H]4C[C@H](O)CC[C@]4(C)[C@H]3C[C@H](O)[C@]12C.Fc1ccc([C@@H]2CCNC[C@H]2COc2ccc3c(c2)OCO3)cc1 [Paroxetine glycocholate, paroxetine glycocholate]
Reply: f

Ask: Entry Fc1ccc([C@@H]2CCNC[C@H]2COc2ccc3c(c2)OCO3)cc1 [Paroxetine HCl, paroxetine hydrochloride] please
Reply: f
